B1: glmS ribozyme (parent)
chain: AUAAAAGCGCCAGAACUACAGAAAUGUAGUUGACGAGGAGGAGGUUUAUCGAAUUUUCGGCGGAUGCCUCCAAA

Variants of: B1
Assay: self-cleavage kobs at 2500 uM GlcN6P; higher = faster cleavage; RNA array
Settings: with glucosamine-6-phosphate
Fewer inactive variants are shown than the library holds.
Please note: MET applies when self-cleavage kobs at 2500 uM GlcN6P is 0.001 s⁻¹ or greater, and NOT MET applies otherwise.

Exam item: decide whether the reported self-cleavage kobs at 2500 uM GlcN6P for G35C A48G A53U is at least 0.001 s⁻¹.
NOT MET

Quick check: does A6G C34A have self-cleavage kobs at 2500 uM GlcN6P greater than or equal to 0.001 s⁻¹?
NOT MET

Evaluate C16G C70U : self-cleavage kobs at 2500 uM GlcN6P at minimum 0.001 s⁻¹?
NOT MET

State whether the measured self-cleavage kobs at 2500 uM GlcN6P reaches 0.001 s⁻¹, counting equality as reaching it, for A42C G62C G63U U69A
NOT MET

State whether the measured self-cleavage kobs at 2500 uM GlcN6P reaches 0.001 s⁻¹, counting equality as reaching it, for A15G G66U C71U
MET

Is self-cleavage kobs at 2500 uM GlcN6P at least 0.001 s⁻¹? Consider C11U U31A G32A G38A C70G
NOT MET

Determine whether this variant has self-cleavage kobs at 2500 uM GlcN6P no lower than 0.001 s⁻¹: G29A A42G
MET

Say whether G29A G35U A42G A52U shows self-cleavage kobs at 2500 uM GlcN6P of 0.001 s⁻¹ or more.
NOT MET

hey, is self-cleavage kobs at 2500 uM GlcN6P for this one >= 0.001 s⁻¹? G38C G60C G66U
NOT MET

Item U31A U47C G51A G66A with self-cleavage kobs at 2500 uM GlcN6P of 0.001 s⁻¹ or above?
NOT MET

Hi team, for A36G A42C U57C G59U , is the recorded self-cleavage kobs at 2500 uM GlcN6P at or above 0.001 s⁻¹?
NOT MET

Assess whether reported self-cleavage kobs at 2500 uM GlcN6P for G43A G51A sits at 0.001 s⁻¹ or higher.
NOT MET

Could you please find out whether A12U U54C has self-cleavage kobs at 2500 uM GlcN6P that meets 0.001 s⁻¹ or exceeds it?
MET

Check if self-cleavage kobs at 2500 uM GlcN6P >= 0.001 s⁻¹ (inclusive). Item: A15U A42G G62U
NOT MET

self-cleavage kobs at 2500 uM GlcN6P >= 0.001 s⁻¹ for G9A C70A ?
NOT MET

Is self-cleavage kobs at 2500 uM GlcN6P for G29A U54G at or above 0.001 s⁻¹?
MET

Check this variant for self-cleavage kobs at 2500 uM GlcN6P at or above 0.001 s⁻¹: A20C
MET

Check the entry A33U G51U C67U : does self-cleavage kobs at 2500 uM GlcN6P equal or exceed 0.001 s⁻¹?
NOT MET

State whether the measured self-cleavage kobs at 2500 uM GlcN6P reaches 0.001 s⁻¹, counting equality as reaching it, for A12U A48U
NOT MET

Tell me whether self-cleavage kobs at 2500 uM GlcN6P is at least 0.001 s⁻¹ here: G7C C8U A15G G35A
NOT MET

Determine whether measured self-cleavage kobs at 2500 uM GlcN6P meets or exceeds 0.001 s⁻¹ for C11U U55G
MET

Is self-cleavage kobs at 2500 uM GlcN6P at least 0.001 s⁻¹? Consider C34U G40A
NOT MET
